These data points were gathered from the supplement of paper PMC12494721.

# Test system: Ruminococcus gnavus DSM 108212
# measurementDescription: fold change of 2-Phenylethylamine concentration vs plate DMSO controls (fold change (ratio)); higher = more amine produced, active = hit call of the paper (significant change in both replicates, either direction)
# conditionLabel: incubation time: 27 h, anaerobic, 37 °C
Where a name gives a salt, the structure may show the parent alone.
Please note: MET applies when fold change of 2-Phenylethylamine concentration is 1 or greater, and NOT MET applies otherwise.

# check: fold change of 2-Phenylethylamine concentration of CN(C)CCOC(c1ccccc1)c1ccccc1 [Diphenhydramine hydrochloride] (20 µM) is greater than or equal to 1
NOT MET

# check: fold change of 2-Phenylethylamine concentration of CC(C(=O)O)c1ccc(C(=O)c2cccs2)cc1 (configuration not stated) [Suprofen] (20 µM) is greater than or equal to 1
MET

# check: fold change of 2-Phenylethylamine concentration of Nc1ccc(S(=O)(=O)NC(=O)c2ccccc2)cc1 [Sulfabenzamide] (20 µM) is greater than or equal to 1
MET

# check: fold change of 2-Phenylethylamine concentration of O=C(COc1ccc(Cl)cc1)N1CCN(Cc2ccc3c(c2)OCO3)CC1 [Fipexide hydrochloride] (20 µM) is greater than or equal to 1
NOT MET

# check: fold change of 2-Phenylethylamine concentration of CNCC[C@@H](Oc1ccccc1C)c1ccccc1 [Tomoxetine hydrochloride] (20 µM) is greater than or equal to 1
MET

# check: fold change of 2-Phenylethylamine concentration of O=C(NCC1CCCCN1)c1cc(OCC(F)(F)F)ccc1OCC(F)(F)F (configuration not stated) [Flecainide acetate] (20 µM) is greater than or equal to 1
MET

###

Give fold change of Tryptamine concentration for every item shown.
# Tested on: Ruminococcus gnavus DSM 108212
# measurementDescription: fold change of Tryptamine concentration vs plate DMSO controls (fold change (ratio)); higher = more amine produced, active = hit call of the paper (significant change in both replicates, either direction)
# conditionLabel: incubation time: 27 h, anaerobic, 37 °C
Structures can show the parent of a compound that is named as a salt.
Write no unit; give the number alone.

Query: fold change of Tryptamine concentration; subject: CCOC(=O)N1CCC(=C2c3ccc(Cl)cc3CCc3cccnc32)CC1 [Loratadine] (20 µM)
0.864

Query: fold change of Tryptamine concentration; subject: Oc1ncnc2[nH]ncc12 [Allopurinol] (20 µM)
1.01

Query: fold change of Tryptamine concentration; subject: Cc1cc2nc3ccc(=[N+](C)C)cc-3sc2cc1N [Tolonium chloride] (20 µM)
0.972

Query: fold change of Tryptamine concentration; subject: CN(C)CCCN1c2ccccc2Sc2ccc(C(F)(F)F)cc21 [Triflupromazine hydrochloride] (20 µM)
0.814

Query: fold change of Tryptamine concentration; subject: CNCC[C@@H](Oc1ccccc1C)c1ccccc1 [Tomoxetine hydrochloride] (20 µM)
1

Query: fold change of Tryptamine concentration; subject: O=C(NCCNCC(O)COc1ccc(O)cc1)N1CCOCC1 (centres undefined) [Xamoterol hemifumarate] (20 µM)
0.889

Query: fold change of Tryptamine concentration; subject: CC(C)Oc1ccc2c(=O)c(-c3ccccc3)coc2c1 [Ipriflavone] (20 µM)
1.04

Query: fold change of Tryptamine concentration; subject: COc1cccc(OC)c1C(=O)N[C@@H]1C(=O)N2[C@@H]1SC(C)(C)[C@@H]2C(=O)O [Methicillin sodium] (20 µM)
0.608

Query: fold change of Tryptamine concentration; subject: Cc1nc2ccccc2n1Cc1ccc(Cl)cc1 [Chlormidazole] (20 µM)
0.899

Query: fold change of Tryptamine concentration; subject: CC(=O)Oc1ccccc1C(=O)Nc1ncc([N+](=O)[O-])s1 [Nitazoxanide] (20 µM)
0.045

Query: fold change of Tryptamine concentration; subject: OCCN1C[C@H](O)[C@@H](O)[C@H](O)[C@H]1CO [Miglitol] (20 µM)
1.02

Query: fold change of Tryptamine concentration; subject: c1ccc2cc3c(ccc4ccccc43)cc2c1 [Benz[a]anthracene] (20 µM)
1.12

Query: fold change of Tryptamine concentration; subject: NS(=O)(=O)c1cc2c(cc1Cl)N=CNS2(=O)=O [Chlorothiazide] (20 µM)
0.998

Query: fold change of Tryptamine concentration; subject: O=C(O)CNC(=O)C(CS)Cc1ccccc1 (centres undefined) [Thiorphan] (20 µM)
1.04

Query: fold change of Tryptamine concentration; subject: CC(C)NCC(O)COc1ccc(CCOCC2CC2)cc1 (centres undefined) [Betaxolol hydrochloride] (20 µM)
1

Query: fold change of Tryptamine concentration; subject: Clc1ccc2c(c1)C(N1CCNCC1)=Nc1ccccc1O2 [Amoxapine] (20 µM)
0.983

Query: fold change of Tryptamine concentration; subject: O=C(CCCN1CC=C(n2c(=O)[nH]c3ccccc32)CC1)c1ccc(F)cc1 [Droperidol] (20 µM)
0.963

Query: fold change of Tryptamine concentration; subject: CC(C)NCC(O)c1ccc(O)c(O)c1 (single isomer, unassigned; (-)) [(-) Isoproterenol hydrochloride] (20 µM)
0.857

Query: fold change of Tryptamine concentration; subject: CN(C)CCOC(=O)COc1ccc(Cl)cc1 [Meclofenoxate hydrochloride] (20 µM)
0.958

Query: fold change of Tryptamine concentration; subject: Cc1ncc(C[n+]2csc(CCO)c2C)c(N)n1 [Thiamine hydrochloride] (20 µM)
0.914

Query: fold change of Tryptamine concentration; subject: CCc1cccc(CC)c1NC(=O)CN(CC(=O)O)CC(=O)O [Etifenin] (20 µM)
0.951

Query: fold change of Tryptamine concentration; subject: O=C(OCCOCCO)c1ccccc1Nc1cccc(C(F)(F)F)c1 [Etofenamate] (20 µM)
0.883

Query: fold change of Tryptamine concentration; subject: CN(CCOc1ccc(NS(C)(=O)=O)cc1)CCc1ccc(NS(C)(=O)=O)cc1 [Dofetilide] (20 µM)
1.04

Query: fold change of Tryptamine concentration; subject: NC[C@H]1CC[C@H](C(=O)O)CC1 [Tranexamic acid] (20 µM)
0.85
